Values were extracted from PubChem BioAssay (NCI).

# Tested on: HCT-116 colon
# Assay Protocol: NCI-60 one-dose screen, 48 h
# Experimental Setup: 10 µM unless noted
This is part of a sample that, as a whole, favours compounds with a hit. Of some 83,000 tested, about 20% had one in any assay. The source made the active and inactive calls. Rule for the calls: active = growth percent below 10; inactive = the rest.
// allowed return values: label 1 (active), label 0 (inactive)

1. C[N+]12CN3CN(CN(C3)C1)C2
label 0
2. N#C[S-].[Au+].c1ccc(CN2[CH-]N(Cc3ccccc3)C(c3ccccc3)=C2c2ccccc2)cc1
label 1
3. C=CCCCCCCCCC(=O)[O-].C=CCCCCCCCCC(=O)[O-].[Zn+2]
label 0

Data request: Status in this test for COc1ccc(/C=C\c2cc(OC)c(OC)c(OC)c2)c(NS(=O)(=O)c2ccc(Cl)cc2)c1O ?
Data returned: label 1

Data request: Status in this test for O=C(O)C(O)C(O)C1[O][Sb]([c]2ccc([N+](=O)[O-])cc2)[O]C1CO (stereo not given) ?
Data returned: label 0

Data request: Status in this test for CC1[C@H](C)OC(=O)CC(O)CC(O)CC(O)CCC(O)C(O)C[C@]2(O)CC(O)C(C(=O)O)C(CC(OC3O[C@H](C)[C@@H](O)[C@H](N)[C@@H]3O)/C=C/C=C/C=C/C=C/CC/C=C/C=C/[C@H](C)[C@H]1O)O2 (stereo not given in full) ?
Data returned: label 0

Data request: Status in this test for COc1ccc2c(c1)c(-c1nc(-c3cn(C)c4ncccc34)cs1)cn2CCN1CCOCC1 ?
Data returned: label 0

Data request: Status in this test for CCOP1(=O)CC(C)=C(Cl)C(P(=O)(OCC)OCC)C1 (stereo not given) ?
Data returned: label 0

Data request: Status in this test for Cn1cc(-c2csc(-c3cn(CCCCN4CCCCC4)c4ccccc34)n2)c2cccnc21 ?
Data returned: label 1

Data request: Status in this test for Cc1ccc2c(C(C[N+](=O)[O-])c3cccs3)c(-c3ccccc3)[nH]c2c1 (stereo not given) ?
Data returned: label 0
